- test_system: T1, SNF RRM1 (Drosophila melanogaster, UniProt P43332 1-104)
- T1 sequence: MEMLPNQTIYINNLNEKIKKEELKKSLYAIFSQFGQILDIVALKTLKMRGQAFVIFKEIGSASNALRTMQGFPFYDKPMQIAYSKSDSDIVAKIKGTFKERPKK
- experiment: SPR; SPR 25 C: 10 mM HEPES pH 7.4, 150 mM NaCl, 3 mM EDTA, 0.05% P-20 (U1hpII); 50 mM PBS pH 7.0, 1 mM EDTA, 0.05% P-20 (poly(U)). EMSA: 4% native gel, protein ~1 uM, buffer by reference
- details: protein: recombinant; tags: pET-21d(+) vector; label: biotin; hairpin
attribute_measured: Kd

Specify Kd for GGCUUGGCCAUUGCACCUCGGCUGAGUU (structured_RNA, 5' biotin) [U1hpII (SPR)] and stop.
~4.4 nM
